Hello, the source for this data is patent US6638973B2, in case you need it.

Test system: HCT116 cells
measurement.protocol: In vitro cytotoxicity measured by the cell colony formation assay
Format: cell-based
condition.description: HCT116 cells, colony formation, 72 h incubation with drug, colonies counted after 7 days; ID50 = drug concentration producing 50% inhibition of colony formation; read-out: IN VITRO ID 50 (nm) HCT116
Description: Four hundred cells (HCT116) were plated in 60 mm Petri dishes containing 2.7 mL of medium (modified McCoy's 5a medium containing 10% fetal bovine serum and 100 units/mL penicillin and 100 µg/mL streptomycin). The cells were incubated in a CO2 incubator at 37° C. for 5 h for attachment to the bottom of Petri dishes. […] The cell colonies were counted using a colony counter after incubation for 7 days. […]
pIC50: −log10 of the molar value.
Collected pIC50 values appear next to each entry.
assay.metric: pIC50

1. CCNC(=O)O[C@H]1C(=O)[C@@]2(C)C([C@H](OC(=O)c3ccccc3)[C@]3(O)C[C@H](OC(=O)[C@H](O)[C@@H](NC(=O)OC(C)(C)C)C(C)C)C(C)=C1C3(C)C)[C@]1(OC(C)=O)CO[C@@H]1C[C@@H]2O (some centres unmarked)	> 8.00
2. CCNC(=O)O[C@H]1C(=O)[C@@]2(C)C([C@H](OC(=O)c3ccccc3)[C@]3(O)C[C@H](OC(=O)[C@H](O)[C@@H](NC(=O)OC(C)(C)C)c4ccco4)C(C)=C1C3(C)C)[C@]1(OC(C)=O)CO[C@@H]1C[C@@H]2O (some centres unmarked)	> 9.00
